- Assayed Target: T1, Formyl-Peptide Receptor 1 (UniProt P21462 1-350, limits assumed)
- T1 sequence (looked up): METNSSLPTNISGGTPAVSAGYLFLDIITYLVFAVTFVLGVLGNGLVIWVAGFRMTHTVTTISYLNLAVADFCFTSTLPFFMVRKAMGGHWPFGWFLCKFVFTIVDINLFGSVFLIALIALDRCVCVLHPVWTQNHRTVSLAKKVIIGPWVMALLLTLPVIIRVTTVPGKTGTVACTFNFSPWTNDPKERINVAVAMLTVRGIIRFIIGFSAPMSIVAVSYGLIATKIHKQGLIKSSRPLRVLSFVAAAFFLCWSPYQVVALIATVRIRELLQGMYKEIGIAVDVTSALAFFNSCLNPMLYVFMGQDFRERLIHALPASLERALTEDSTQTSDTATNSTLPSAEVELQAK
- Protocol: cell-based or functional assay
Bridges are numbered along the chain shown (N, C = ends). [ ]: non-standard residue; d: D form. Dab = NCC[C@H](N)C(=O)O
Metric Name: β-Arrestin IC50 (nM)

Binder	Recorded Result
cyclo(YHKCWG[dP]WTICYEK[dK]P) (disulfide 4-11; SMILES CC[C@H](C)[C@@H]1NC(=O)[C@H]([C@@H](C)O)NC(=O)[C@H](Cc2c[nH]c3ccccc23)NC(=O)[C@H]2CCCN2C(=O)CNC(=O)[C@H](Cc2c[nH]c3ccccc23)NC(=O)[C@@H]2CSSC[C@H](NC1=O)C(=O)N[C@@H](Cc1ccc(O)cc1)C(=O)N[C@@H](CCC(=O)O)C(=O)N[C@@H](CCCCN)C(=O)N[C@H](CCCCN)C(=O)N1CCC[C@H]1C(=O)N[C@@H](Cc1ccc(O)cc1)C(=O)N[C@@H](Cc1c[nH]cn1)C(=O)N[C@@H](CCCCN)C(=O)N2) [cyclo(-Tyr-His-Lys-Cys-Trp-Gly-^DPro-Trp-Thr-Ile-Cys-Tyr-Glu-Lys-^DLys-Pro-)]	126
cyclo([Dab]HKCHG[dP]WTICYEK[dP]P) (disulfide 4-11; SMILES CC[C@H](C)[C@@H]1NC(=O)[C@H]([C@@H](C)O)NC(=O)[C@H](Cc2c[nH]c3ccccc23)NC(=O)[C@H]2CCCN2C(=O)CNC(=O)[C@H](Cc2c[nH]cn2)NC(=O)[C@@H]2CSSC[C@H](NC1=O)C(=O)N[C@@H](Cc1ccc(O)cc1)C(=O)N[C@@H](CCC(=O)O)C(=O)N[C@@H](CCCCN)C(=O)N1CCC[C@@H]1C(=O)N1CCC[C@H]1C(=O)N[C@@H](CCN)C(=O)N[C@@H](Cc1c[nH]cn1)C(=O)N[C@@H](CCCCN)C(=O)N2) [cyclo(-Dab-His-Lys-Cys-His-Gly-^DPro-Trp-Thr-Ile-Cys-Tyr-Glu-Lys-^DPro-Pro-)]	194
cyclo(YHKCHG[dP]WTICYEK[dP]P) (disulfide 4-11) [cyclo(-Tyr-His-Lys-Cys-His-Gly-^DPro-Trp-Thr-Ile-Cys-Tyr-Glu-Lys-^DPro-Pro-)]	44
